These data points were gathered from patent US8507686B2.

TARGET_OR_SYSTEM: human S1P1 receptor (Homo sapiens, UniProt P21453)
Construct: membranes used
Sequence (P21453 whole entry): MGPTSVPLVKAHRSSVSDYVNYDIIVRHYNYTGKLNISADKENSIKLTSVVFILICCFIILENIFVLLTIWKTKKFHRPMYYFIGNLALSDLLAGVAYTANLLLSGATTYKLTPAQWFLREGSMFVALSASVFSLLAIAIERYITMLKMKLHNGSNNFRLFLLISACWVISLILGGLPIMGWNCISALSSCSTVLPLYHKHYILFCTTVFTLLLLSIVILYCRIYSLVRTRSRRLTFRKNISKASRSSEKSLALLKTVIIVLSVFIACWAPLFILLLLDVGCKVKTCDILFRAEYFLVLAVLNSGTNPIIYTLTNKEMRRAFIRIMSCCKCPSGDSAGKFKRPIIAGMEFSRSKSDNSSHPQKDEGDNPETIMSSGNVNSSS
ASSAY_SUMMARY: GTP γ35S binding assay for S1P1 activity
CONDITIONS_USED: membranes of cells stably expressing the S1P1 receptor; agonist-induced GTP γ35S binding; read-out: EC50 at the S1P1 receptor from GTP γ35S
REPORTED_ENDPOINT: EC50 (nM)
Answers are plain numbers, in nM.

-- ask Would you please give the reported EC50 of O=C(O)C1CN(Cc2ccc(C#CCCCCc3ccccc3)c3cccnc23)C1 with human S1P1 receptor (Homo sapiens, UniProt P21453)?
-- reply 390
